# assay.procedure: clinical
# Assay type: in vivo, human (adult patients)
# condition.set: both sexes, human, in vivo, iv; patients without cancer (n = 9), 100-150 mg/day i.v. infusion over 60 min; two-compartment population model (Monolix 4.4), plasma HPLC-UV; population estimate
Numbered stars: 1 amine (or outer) side, 2 acyl side, 3 side chain; on linkers, the order of the positions; unused ones are H or OH. Bridge positions count the residues as written; N and C are the ends. Square brackets hold non-standard residues; d marks the D form. Peptide text beside a SMILES is read from it. * marks the point of attachment. hTyr(3S-OH,4S-OH,3'-OSO3H) = N[C@H](C(=O)O)[C@H](O)[C@@H](O)c1ccc(O)c(OS(=O)(=O)O)c1; Orn(4R-OH,5R-OH) = O=C([C@H](C[C@@H](O)[C@@H](O)N[*:3])N[*:1])[*:2]; Pro(3S-OH,4S-Me) = C[C@H]1CN[C@H](C(=O)O)[C@H]1O; X1 = CCCCCOc1ccc(-c2cc(-c3ccc(C(=O)*)cc3)no2)cc1; Gln(3R-OH) = NC(=O)C[C@@H](O)[C@H](N)C(=O)O; Hyp = O=C(O)[C@@H]1C[C@@H](O)CN1
measure: clearance (mL/min)
Give bare numbers, in mL/min.

Summary for this compound, CCCCCOc1ccc(-c2cc(-c3ccc(C(=O)N[C@H]4C[C@@H](O)[C@@H](O)NC(=O)[C@@H]5[C@@H](O)[C@@H](C)CN5C(=O)[C@H]([C@H](O)CC(N)=O)NC(=O)[C@H]([C@H](O)[C@@H](O)c5ccc(O)c(OS(=O)(=O)O)c5)NC(=O)[C@@H]5C[C@@H](O)CN5C(=O)[C@H]([C@@H](C)O)NC4=O)cc3)no2)cc1 [micafungin] (X1-[Orn(4R-OH,5R-OH)]T[Hyp][hTyr(3S-OH,4S-OH,3'-OSO3H)][Gln(3R-OH)][Pro(3S-OH,4S-Me)]; lactam 1-C) : clearance is 10
